- Test system: Trypanosoma brucei brucei
- procedure details: GSK_TCAKS: pIC50 Trypanosoma brucei viability assay using luminiscence. Assay plates (1536-well) were prepared. T. brucei cultures were harvested and counted in a CASY cell counter. A parasite suspension was prepared at a final concentration of 5 * 10^4 cells/mL in complete HMI9 medium and 6uL was dispensed to all wells containing compounds using a Multidrop Combi dispenser. 6uL of HMI9 media with 0.4% DMSO were dispensed to control columns. Plates were incubated for 24 h at 37C, 5% CO2 then tempered for 10 min at room temperature. ATP content was quantified by adding 4 uL of CellTiter-Glo Reagent (Promega) according to the manufacturer's instructions. Luminescence was measured using a ViewLux.
- Format: functional, organism-based
- reported conditions: Lister 427, CASY
Below, each entry is listed alongside its reported pIC50.
The quantity pIC50 is defined as the negative base-10 logarithm of the molar concentration.

Item: CCc1ccc2nc(NC(=O)c3cc(N4CCOCC4)ccn3)sc2c1 | pIC50: 6.00

Item: CCOc1ccc2nc(NC(=O)c3ccc([N+](=O)[O-])s3)sc2c1 | pIC50: 5.60

Item: COc1ccc(C(=O)Nc2cc(C(F)(F)F)ccc2N2CCOCC2)c(OC)c1 | pIC50: 4.60

---
Item: Cn1nccc1-c1cc(OC(CN)c2ccccc2)cnc1-c1ccco1 (configuration not stated) | pIC50: 4.80

Item: C[C@@H](Oc1cc(-n2cnc3cc(N)ccc32)sc1C(N)=O)c1ccccc1Cl | pIC50: 6.10

----------
- procedure details: GSK_TCAKS: pIC50 HepG2 human cell line viability assay using luminiscence. […] Seeding density was checked to ensure that new mono-layers were not more than 50% confluent at the time of harvesting. Cell suspension was added to 500 mL of the same medium at a final density of 1.2 * 10^5 cells/mL. This cell suspension was dispensed (25 uL, 3000 cells per well) into 384-well clear-bottom plates using a Multidrop Combi dispenser. Prior to addition of the cell suspension, the screening compounds (250 nL) were pre-dispensed into the plates with an Echo liquid handler. Plates were incubated for 48 h at 37C, 5% CO2. After incubation, plates equilibrated at room temperature for 30 min before proceeding to develop the luminescent signal. The signal developer, CellTiter-Glo Reagent, was allowed to equilibrate at room temperature for 30 min and added to the plates (25uL per well) using a Multidrop Combi dispenser. Plates were left for 10 min at room temperature for stabilization and then read using a ViewLux.
- Assay type: toxicity, cell-based
Below, each entry is listed alongside its reported IC50 at 48 h.

Item: Cc1cccc(NS(=O)(=O)c2cnc3sc(C)cn3c2=O)c1 | IC50 at 48 h: > 100 µM

Item: COc1ccc(-c2nc3ncccc3o2)cc1NC(=O)c1cccs1 | IC50 at 48 h: > 100 µM

# context switch: different compound, same IC50 at 48 h
Item: CCC1Oc2cc(S(=O)(=O)N(C)CC(=O)N3CCc4ccccc4C3)c(C)cc2NC1=O (configuration not stated) | IC50 at 48 h: > 100 µM

----------
Below, each entry is listed alongside its reported IC50.
- System: Trypanosoma brucei brucei
- procedure details: GSK_TCAKS: pIC50 Trypanosoma brucei viability assay using luminiscence. Assay plates (1536-well) were prepared. T. brucei cultures were harvested and counted in a CASY cell counter. A parasite suspension was prepared at a final concentration of 5 * 10^4 cells/mL in complete HMI9 medium and 6uL was dispensed to all wells containing compounds using a Multidrop Combi dispenser. 6uL of HMI9 media with 0.4% DMSO were dispensed to control columns. Plates were incubated for 24 h at 37C, 5% CO2 then tempered for 10 min at room temperature. ATP content was quantified by adding 4 uL of CellTiter-Glo Reagent (Promega) according to the manufacturer's instructions. Luminescence was measured using a ViewLux.
- Type: functional, organism-based
- reported conditions: Lister 427, CASY

Guide cases for IC50, answers given:
Item: Cc1cc2cncn2c(C2CCCCN2C(=O)c2cccs2)n1 (stereo not drawn) | IC50: > 39.8 µM

Item: O=C(Nc1nc(-c2ccc(S(=O)(=O)N3CCOCC3)cc2)cs1)c1ccc([N+](=O)[O-])cc1 | IC50: 10 µM

Item: Oc1nccc2ccc(-c3ccncc3)cc12 | IC50: > 39.8 µM

---
Item: CN(Cc1nc2ccccc2s1)C(=O)C=Cc1cc2ccccc2o1 | IC50: > 39.8 µM

Item: O=c1[nH]c(C=Cc2cccc(OCCOc3ccccc3)c2)nc(O)c1[N+](=O)[O-] | IC50: 10 µM

Item: CN(Cc1nnnn1C1CCN(Cc2ccc(-n3ccnc3)cc2)CC1)c1ccc(F)cc1F | IC50: > 39.8 µM

Item: CN(C)c1ncc(-c2cncn2CCOc2ccc(Cl)cc2)cn1 | IC50: > 39.8 µM

Item: O=C(c1cccc(Nc2ncc(-c3ccc4c(c3)OCO4)cn2)c1)N1CCOCC1 | IC50: > 50.1 µM

----------
- Test system: Trypanosoma brucei brucei
- procedure details: GSK_TCAKS: pIC50 Trypanosoma brucei viability assay using luminiscence. Assay plates (1536-well) were prepared. T. brucei cultures were harvested and counted in a CASY cell counter. A parasite suspension was prepared at a final concentration of 5 * 10^4 cells/mL in complete HMI9 medium and 6uL was dispensed to all wells containing compounds using a Multidrop Combi dispenser. 6uL of HMI9 media with 0.4% DMSO were dispensed to control columns. Plates were incubated for 24 h at 37C, 5% CO2 then tempered for 10 min at room temperature. ATP content was quantified by adding 4 uL of CellTiter-Glo Reagent (Promega) according to the manufacturer's instructions. Luminescence was measured using a ViewLux.
- Format: functional, organism-based
- reported conditions: Lister 427, CASY
For each record, check the reported IC50: if it is below 3 µM write 1.0, else write 0.0.

Reference set, count: 5
Query block: Field: below-cutoff. Rule: recorded IC50 strictly less than 3 µM. Subject: Cc1nc(C(=O)Nc2ccc3c(c2)OCO3)nn1-c1ccc(F)cc1
Result block: 0.0

Query block: Field: below-cutoff. Rule: recorded IC50 strictly less than 3 µM. Subject: Cc1c([N+](=O)[O-])c(C(=O)Nc2sc3c(c2C#N)CCC(C)C3)nn1C (configuration not stated)
Result block: 0.0

Query block: Field: below-cutoff. Rule: recorded IC50 strictly less than 3 µM. Subject: O=C(CSc1nnc(-c2ccc3c(c2)OCO3)o1)N(Cc1ccco1)CC(F)(F)F
Result block: 0.0

Query block: Field: below-cutoff. Rule: recorded IC50 strictly less than 3 µM. Subject: COc1ccc(C(=O)N2CCC(Nc3cccnc3)C2)c(OC)n1 (configuration not stated)
Result block: 0.0

Query block: Field: below-cutoff. Rule: recorded IC50 strictly less than 3 µM. Subject: Cc1nc(C(=O)Nc2ccc3c(c2)OCO3)nn1-c1ccc(Cl)cc1
Result block: 0.0

---
Query block: Field: below-cutoff. Rule: recorded IC50 strictly less than 3 µM. Subject: O=C(c1ccc(OCCCc2cnc[nH]2)cc1)C1CC1
Result block: 0.0

Query block: Field: below-cutoff. Rule: recorded IC50 strictly less than 3 µM. Subject: Cc1ccc2onc(Nc3ccnc(Nc4cccc(S(C)(=O)=O)c4)n3)c2c1
Result block: 0.0

Query block: Field: below-cutoff. Rule: recorded IC50 strictly less than 3 µM. Subject: CCC(CC)C(=O)Nc1cccc(C(=O)Nc2nnc(C3CCCCC3)s2)c1
Result block: 1.0

Query block: Field: below-cutoff. Rule: recorded IC50 strictly less than 3 µM. Subject: COc1ccc(S(=O)(=O)NCc2ccc(-c3ccc(CN(C)CCO)cc3)cc2)cc1
Result block: 0.0

Query block: Field: below-cutoff. Rule: recorded IC50 strictly less than 3 µM. Subject: O=C(CC1(O)C(=O)N(Cc2ccccc2)c2ccc(Br)cc21)c1cccnc1 (configuration not stated)
Result block: 1.0

Query block: Field: below-cutoff. Rule: recorded IC50 strictly less than 3 µM. Subject: Fc1ccc(O[C@H]2C[C@H](NCc3cccc4cn[nH]c34)C2)cc1C(F)(F)F
Result block: 0.0

Query block: Field: below-cutoff. Rule: recorded IC50 strictly less than 3 µM. Subject: Cc1ccc2sc(NC(=O)Cn3cnc([N+](=O)[O-])n3)nc2c1
Result block: 0.0

----------
Below, each entry is listed alongside its reported IC50 at 48 h.
- procedure details: GSK_TCAKS: pIC50 HepG2 human cell line viability assay using luminiscence. […] Seeding density was checked to ensure that new mono-layers were not more than 50% confluent at the time of harvesting. Cell suspension was added to 500 mL of the same medium at a final density of 1.2 * 10^5 cells/mL. This cell suspension was dispensed (25 uL, 3000 cells per well) into 384-well clear-bottom plates using a Multidrop Combi dispenser. Prior to addition of the cell suspension, the screening compounds (250 nL) were pre-dispensed into the plates with an Echo liquid handler. Plates were incubated for 48 h at 37C, 5% CO2. After incubation, plates equilibrated at room temperature for 30 min before proceeding to develop the luminescent signal. The signal developer, CellTiter-Glo Reagent, was allowed to equilibrate at room temperature for 30 min and added to the plates (25uL per well) using a Multidrop Combi dispenser. Plates were left for 10 min at room temperature for stabilization and then read using a ViewLux.
- Assay type: toxicity, cell-based

Guide cases for IC50 at 48 h, answers given:
Item: O=C(CCCNC(=O)c1ccc(Cl)cc1)Nc1nc(-c2ccccn2)cs1 | IC50 at 48 h: > 100 µM

Item: N#Cc1ccccc1S(=O)(=O)N1CCN(C(=O)CNC(=O)c2ccc3c(c2)OCO3)CC1 | IC50 at 48 h: > 100 µM

Item: Cc1cc(C)n(-c2nc(NC(C)C)nc(NC(C)(C)C)n2)n1 | IC50 at 48 h: > 100 µM

Item: O=C(Nc1nnc(-c2ccccn2)[nH]1)C1CC1c1ccccc1 (centres undefined) | IC50 at 48 h: > 100 µM

Item: CCc1cccc(-n2nc(OCC(=O)NC3CCCC3)c3cccnc32)c1 | IC50 at 48 h: > 100 µM

Item: O=C(Nc1ccc(Br)cn1)c1ccc(Cn2cnc([N+](=O)[O-])n2)cc1 | IC50 at 48 h: > 100 µM

---
Item: CCn1c(NC(=O)Cc2ccc(F)cc2)nc2ccccc21 | IC50 at 48 h: > 100 µM

Item: Cc1cc(Nc2cc(C3CC3)[nH]n2)nc(N2CCCC2)n1 | IC50 at 48 h: 31.6 µM

Item: CC(Cn1ccnc1)NC(=O)C=Cc1ccc(Cl)cc1 (centres undefined) | IC50 at 48 h: > 100 µM

Item: COc1cc(-c2nc(N3CCOCC3)sc2-c2ccnc(NC3CCOCC3)n2)ccc1Cl | IC50 at 48 h: > 100 µM

Item: O=C(Cc1ccccc1)Nc1ccccc1C(=O)Nc1nccs1 | IC50 at 48 h: > 100 µM

Item: COc1ccc(Nc2nc(-c3ccccn3)cs2)c(OC)c1 | IC50 at 48 h: > 100 µM

Item: O=C1CCCCCC1(Cc1cnc[nH]1)c1ccc(Cl)cc1Cl (centres undefined) | IC50 at 48 h: 79.4 µM

Item: CC(C)c1cc(Nc2cc(Cc3ccccc3)nc(N[C@H]3CC[C@H](O)CC3)n2)n[nH]1 | IC50 at 48 h: 31.6 µM

Item: CCCCCNC(=O)c1c[nH]c2ccc(S(=O)(=O)N(C)c3ccc(OCC)cc3)cc2c1=O | IC50 at 48 h: > 100 µM

Item: N#Cc1cc([N+](=O)[O-])ccc1NC1CCCCCC1 | IC50 at 48 h: > 100 µM
